I'd appreciate it if you could supply Hemolysis at 100 μM values for the items below.
Test system: human red blood cells (hRBC)
protocol notes: Hemolysis
Assay type: cell-based
Bridge positions count the residues as written; N and C are the ends. Square brackets hold non-standard residues; d marks the D form. Peptide text beside a SMILES is read from it. 2Nal = N[C@@H](Cc1ccc2ccccc2c1)C(=O)O; Cit = NC(=O)NCCC[C@H](N)C(=O)O
# unit: % | format: bare number

So for C[C@@H]1NC(=O)[C@H](Cc2ccc(O)cc2)NC(=O)[C@@H]2CSSC[C@H](NC(=O)[C@H](CCCNC(N)=O)NC(=O)[C@H](CCCNC(=N)N)NC(=O)[C@H](Cc3ccc(O)cc3)NC(=O)[C@@H]3CCCN3C(=O)[C@H]3CCCN3C(=O)[C@H](CCCCN)NC1=O)C(=O)N[C@@H](CCCNC(=N)N)C(=O)NCC(=O)N1CCC[C@@H]1C(=O)N[C@@H](CCCNC(=N)N)C(=O)N[C@@H](CCCNC(=N)N)C(=O)N[C@@H](Cc1ccc3ccccc3c1)C(=O)N2 [Ex. 80] (cyclo(YR[Cit]CRG[dP]RR[2Nal]CYAK[dP]P); disulfide 4-11) , the logged Hemolysis at 100 μM turned out to be 0.1

Looking up N=C(N)NCCC[C@@H]1NC(=O)[C@@H]2CSSC[C@H](NC(=O)[C@H](Cc3ccc4ccccc4c3)NC(=O)[C@H](CCCNC(=N)N)NC(=O)[C@H](CCCNC(=N)N)NC(=O)[C@H]3CCCN3C(=O)CNC1=O)C(=O)N[C@@H](Cc1ccc(O)cc1)C(=O)N[C@@H](CCC(N)=O)C(=O)N[C@@H](CCCCN)C(=O)N1CCC[C@@H]1C(=O)N1CCC[C@H]1C(=O)N[C@@H](CCC(N)=O)C(=O)N[C@@H](CCCNC(=N)N)C(=O)N[C@@H](CCCNC(N)=O)C(=O)N2 [Ex. 62] (cyclo(QR[Cit]CRG[dP]RR[2Nal]CYQK[dP]P); disulfide 4-11) , I found its Hemolysis at 100 μM recorded as 0.1

----------
Field: GI50 at 48 h. Provide a value for each of the molecules that follow.
protocol notes: in vitro
test context: human
Bridge positions count the residues as written; N and C are the ends. Square brackets hold non-standard residues; d marks the D form. Peptide text beside a SMILES is read from it. 2Nal = N[C@@H](Cc1ccc2ccccc2c1)C(=O)O; Cit = NC(=O)NCCC[C@H](N)C(=O)O; Dab = NCC[C@H](N)C(=O)O

Record summary for N=C(N)NCCC[C@@H]1NC(=O)[C@@H]2CSSC[C@H](NC(=O)[C@H](Cc3c[nH]c4ccccc34)NC(=O)[C@H](CCCNC(=N)N)NC(=O)[C@H](CCN)NC(=O)[C@H]3CCCN3C(=O)CNC1=O)C(=O)N[C@@H](Cc1ccc(O)cc1)C(=O)N[C@@H](CCC(N)=O)C(=O)N[C@@H](CCCCN)C(=O)N1CCC[C@@H]1C(=O)N1CCC[C@H]1C(=O)N[C@@H](Cc1ccc(O)cc1)C(=O)N[C@@H](CCCNC(=N)N)C(=O)N[C@@H](CCCNC(N)=O)C(=O)N2 [Ex. 109] (cyclo(YR[Cit]CRG[dP][Dab]RWCYQK[dP]P); disulfide 4-11) : reported GI50 at 48 h = 65 µM

Lab note: measured GI50 at 48 h of N=C(N)NCCC[C@@H]1NC(=O)[C@@H]2CSSC[C@H](NC(=O)[C@H](Cc3ccc4ccccc4c3)NC(=O)[C@H](CCCNC(=N)N)NC(=O)[C@H](CCCNC(=N)N)NC(=O)[C@H]3CCCN3C(=O)CNC1=O)C(=O)N[C@@H](Cc1ccc(O)cc1)C(=O)N[C@@H](CCC(N)=O)C(=O)N[C@@H](CCCCN)C(=O)N1CCC[C@@H]1C(=O)N1CCC[C@H]1C(=O)N[C@@H](CCC(=O)O)C(=O)N[C@@H](CCCNC(=N)N)C(=O)N[C@@H](CCCNC(N)=O)C(=O)N2 [Ex. 68] (cyclo(ER[Cit]CRG[dP]RR[2Nal]CYQK[dP]P); disulfide 4-11) was > 100 µM

Field GI50 at 48 h (entry C[C@@H]1NC(=O)[C@H](Cc2ccc(O)cc2)NC(=O)[C@@H]2CSSC[C@H](NC(=O)[C@H](CCCNC(N)=O)NC(=O)[C@H](CCCNC(=N)N)NC(=O)[C@H](Cc3ccc(O)cc3)NC(=O)[C@@H]3CCCN3C(=O)[C@H]3CCCN3C(=O)[C@H](CCCCN)NC1=O)C(=O)N[C@@H](CCCNC(=N)N)C(=O)NCC(=O)N1CCC[C@@H]1C(=O)N[C@@H](CCCNC(=N)N)C(=O)N[C@@H](CCCNC(=N)N)C(=O)N[C@@H](Cc1ccc3ccccc3c1)C(=O)N2 [Ex. 80] (cyclo(YR[Cit]CRG[dP]RR[2Nal]CYAK[dP]P); disulfide 4-11) ) reads 44 µM

# GI50 at 48 h of C[C@@H](O)[C@@H]1NC(=O)[C@H](CCCNC(=N)N)NC(=O)[C@H](Cc2ccc(O)cc2)NC(=O)[C@@H]2CCCN2C(=O)[C@H]2CCCN2C(=O)[C@H](CCCCN)NC(=O)[C@H](CCC(N)=O)NC(=O)[C@H](Cc2ccc(O)cc2)NC(=O)[C@@H]2CSSC[C@H](NC1=O)C(=O)N[C@@H](CCCNC(=N)N)C(=O)NCC(=O)N1CCC[C@@H]1C(=O)N[C@@H](CCN)C(=O)N[C@@H](CCCNC(=N)N)C(=O)N[C@@H](Cc1ccc3ccccc3c1)C(=O)N2 [Ex. 104] (cyclo(YRTCRG[dP][Dab]R[2Nal]CYQK[dP]P); disulfide 4-11) = 71 µM

Lab note: measured GI50 at 48 h of N=C(N)NCCC[C@@H]1NC(=O)[C@@H]2CSSC[C@H](NC(=O)[C@H](Cc3ccc4ccccc4c3)NC(=O)[C@H](CCCNC(=N)N)NC(=O)[C@H](CCCNC(=N)N)NC(=O)[C@H]3CCCN3C(=O)CNC1=O)C(=O)N[C@@H](Cc1ccc(O)cc1)C(=O)N[C@@H](CCCNC(N)=O)C(=O)N[C@@H](CCC(=O)O)C(=O)N1CCC[C@@H]1C(=O)N1CCC[C@H]1C(=O)N[C@@H](Cc1ccc(O)cc1)C(=O)N[C@@H](CCCNC(=N)N)C(=O)N[C@@H](CCCNC(N)=O)C(=O)N2 [Ex. 103] (cyclo(YR[Cit]CRG[dP]RR[2Nal]CY[Cit]E[dP]P); disulfide 4-11) was 42 µM
